- TARGET OF ASSAY: Cytochrome P450 2C9 (Homo sapiens, UniProt P11712)
- Sequence (P11712 whole entry): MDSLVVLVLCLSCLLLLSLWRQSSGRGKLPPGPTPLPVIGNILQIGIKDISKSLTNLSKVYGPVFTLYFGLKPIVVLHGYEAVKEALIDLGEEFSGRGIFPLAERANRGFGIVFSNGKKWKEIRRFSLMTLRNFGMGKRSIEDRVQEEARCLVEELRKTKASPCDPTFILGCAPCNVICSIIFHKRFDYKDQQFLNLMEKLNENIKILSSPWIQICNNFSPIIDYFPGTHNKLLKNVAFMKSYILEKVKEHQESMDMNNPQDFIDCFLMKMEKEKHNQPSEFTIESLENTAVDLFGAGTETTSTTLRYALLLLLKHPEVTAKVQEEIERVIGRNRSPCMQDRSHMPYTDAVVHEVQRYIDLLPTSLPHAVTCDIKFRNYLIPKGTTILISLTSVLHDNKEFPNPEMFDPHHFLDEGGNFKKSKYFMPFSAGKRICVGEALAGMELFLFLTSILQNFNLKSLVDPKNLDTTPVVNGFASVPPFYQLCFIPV
pIC50: −log10 of the molar value.
QUANTITY MEASURED: pIC50

pIC50 reading for C[C@@H]1CCCN1CCCOc1ccc2c(c1)CCc1cc(=O)n(C)nc1-2 : < 4.52

---

- TARGET OF ASSAY: Cytochrome P450 2D6 (Homo sapiens)
- Sequence (P10635 whole entry): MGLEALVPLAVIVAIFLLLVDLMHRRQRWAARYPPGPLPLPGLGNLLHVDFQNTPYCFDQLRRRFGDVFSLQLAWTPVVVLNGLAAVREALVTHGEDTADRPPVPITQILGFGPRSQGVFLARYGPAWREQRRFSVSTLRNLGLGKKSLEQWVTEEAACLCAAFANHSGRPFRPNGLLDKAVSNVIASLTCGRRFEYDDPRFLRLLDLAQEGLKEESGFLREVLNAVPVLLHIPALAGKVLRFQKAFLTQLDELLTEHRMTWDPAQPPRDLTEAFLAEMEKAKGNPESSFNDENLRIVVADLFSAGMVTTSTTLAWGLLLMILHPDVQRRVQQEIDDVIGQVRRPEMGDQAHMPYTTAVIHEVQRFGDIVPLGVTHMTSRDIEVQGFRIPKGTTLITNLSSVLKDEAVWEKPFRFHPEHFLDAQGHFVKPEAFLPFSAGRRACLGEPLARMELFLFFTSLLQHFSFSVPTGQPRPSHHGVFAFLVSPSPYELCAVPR
QUANTITY MEASURED: IC50

IC50 reading for C[C@@H]1CCCN1CCCOc1ccc2c(c1)CCc1cc(=O)n(C)nc1-2 : > 30 µM

---

- ASSAY NAME: Cmax in rat at 5 mg/kg, po
- Assay type: ADME, organism-based
- Design: dose 5 mg/kg, route oral
- COND: in vivo
QUANTITY MEASURED: Cmax (ng/mL)
Field: numeric (ng/mL). Do not append units.

Cmax reading for C[C@@H]1CCCN1CCCOc1ccc2c(c1)CCc1cc(=O)[nH]nc1-2 : 34

Cmax reading for O=C1CC2CCc3cc(OC4CCN(C5CCC5)CC4)ccc3C2=NN1 (racemic) : 75

Cmax reading for C[C@@H]1CCCN1CCCOc1ccc2c(c1)CCc1cc(=O)n(C)nc1-2 : 24

Cmax reading for C[C@@H]1CCCN1CCCOc1ccc2c(c1)CCC1CC(=O)NN=C21 (mixture of isomers) : 27
